Data export: IC50 values recorded with Pim-3 (Homo sapiens (Human)).

{"compound": "Cc1ccc2sc(N)c(C(=O)Nc3cnccc3N3CCC[C@H](N)C3)c2n1 (stereo in doubt) [Example 42]", "IC50": "> 40 nM"}
{"compound": "Cc1cncc(NC(=O)c2c(N)oc3cc(Cl)cnc23)c1N1C[C@@H](N)[C@H](O)[C@@H](C)C1 [Example 78]", "IC50": "≤ 10 nM"}
{"compound": "Cn1ncc(NC(=O)c2c(N)sc3ccc(Cl)nc23)c1N1CCC[C@H](N)C1 [Example 41]", "IC50": "≤ 10 nM"}
{"compound": "Nc1oc2cc(Cl)cnc2c1C(=O)Nc1cnccc1N1C[C@@H](N)C[C@@H](C(F)(F)F)C1 [Example 62]", "IC50": "≤ 10 nM"}
{"compound": "CCc1cnc2c(C(=O)Nc3cnccc3N3CCC[C@H](N)C3)c(N)oc2c1 [Example 47]", "IC50": "≤ 10 nM"}
{"compound": "CCc1cnc2c(C(=O)Nc3cnccc3N3CCC[C@H](N)C3)c(N)sc2c1 [Example 22]", "IC50": "≤ 10 nM"}
{"compound": "Cn1ncc(NC(=O)c2c(N)oc3cccnc23)c1N1CCCC(N)CC1 (centres unmarked) [Example 46]", "IC50": "10 to 100 nM"}
{"compound": "CC(C)Oc1ccnc2c(C(=O)Nc3cnccc3N3CCC[C@H](N)C3)c(N)sc12 [Example 18]", "IC50": "≤ 10 nM"}
{"compound": "COc1ccnc2c(C(=O)Nc3cnn(C)c3N3CCCC(N)CC3)c(N)sc12 (centres unmarked) [Example 17]", "IC50": "≤ 10 nM"}
{"compound": "Nc1sc2cccnc2c1C(=O)Nc1cnccc1N1CCCC(N)CC1 (centres unmarked) [Example 9]", "IC50": "> 40 nM"}
{"compound": "Cn1ncc(NC(=O)c2c(N)oc3c(Cl)ccnc23)c1N1CCCC(N)CC1 (centres unmarked) [Example 58]", "IC50": "≤ 10 nM"}
{"compound": "COc1cnc2c(C(=O)Nc3cnn(C)c3N3CCCC(N)CC3)c(N)sc2c1 (centres unmarked) [Example 13]", "IC50": "≤ 10 nM"}
{"compound": "CN1CCC(c2cnc3c(C(=O)Nc4cnccc4N4C[C@@H](N)C[C@@H](C(F)(F)F)C4)c(N)oc3c2)CC1 [Example 93]", "IC50": "≤ 10 nM"}
{"compound": "CCCc1cnc2c(C(=O)Nc3cnccc3N3C[C@H](C)C[C@H](N)C3)c(N)oc2c1 [Example 70]", "IC50": "≤ 10 nM"}
{"compound": "Cc1ccnc2c(C(=O)Nc3cnccc3N3CCC[C@H](N)C3)c(N)oc12 [Example 55]", "IC50": "≤ 10 nM"}
{"compound": "Nc1oc2cc(C3CC3)cnc2c1C(=O)Nc1cnccc1N1C[C@@H](N)C[C@@H](C(F)(F)F)C1 [Example 113]", "IC50": "≤ 10 nM"}
{"compound": "Cn1ncc(NC(=O)c2c(N)sc3ccc(-c4ccccc4)nc23)c1N1CCCC(N)CC1 (centres unmarked) [Example 44]", "IC50": "≤ 10 nM"}
